Experiment: Pharmacokinetic studies in mice after single s.c. or oral dose
Settings: female, CD-1, mouse, plasma, sc, 20 mg/kg, PK s.c. AUC0-48, mice, 20 mg/kg s.c. (footnote *)
readout: AUC(0-t) (µM·h)

>>> reported_measurement("CCN(CC)CCCCCCOc1ccc(C(c2ccc(OCCCCCCN(CC)CC)cc2)=C2[C@H]3C[C@@H]4C[C@@H](C[C@H]2C4)C3)cc1")
4.7

====

Tested on: MCF7 cells
Test: Cell proliferation assay (WST-1), MCF7
Assay type: cell-based, human
Conditions: Homo sapiens, MCF7, inhibition of cell proliferation; read-out: IC50 MCF7
readout: IC50 (nM)

>>> reported_measurement("c1cc(C(=C2C3CC4CC(C3)CC2C4)c2ccc(OCCCCCCCCN3CCCCCC3)cc2)ccc1OCCCCCCCCN1CCCCCC1 [NB-80]")
2700
>>> reported_measurement("Clc1ccc(C(=C2C3CC4CC(C3)CC2C4)c2ccc(OCCCCCCN3CCCCCC3)cc2)cc1 [NB-119]")
4200
>>> reported_measurement("C[N+]1(CCCCCOc2ccc(C(=C3C4CC5CC(C4)CC3C5)c3ccc(OCCCCC[N+]4(C)CCCCC4)cc3)cc2)CCCCC1 [NB-88]")
1700
>>> reported_measurement("CC[N+](C)(CCO)CCCCCCOc1ccc(C(=C2C3CC4CC(C3)CC2C4)c2ccc(OCCCCCC[N+](C)(CC)CCO)cc2)cc1 (stereo not shown) [NB-134]")
1100
>>> reported_measurement("CCN(CC)CCOCCOCCOc1ccc(C(=C2C3CC4CC(C3)CC2C4)c2ccc(OCCOCCOCCN(CC)CC)cc2)cc1 [NB-53]")
3500
>>> reported_measurement("C[N+](CCO)(CCO)CCCCCCOc1ccc(C(=C2C3CC4CC(C3)CC2C4)c2ccc(OCCCCCC[N+](C)(CCO)CCO)cc2)cc1 [NB-135]")
2100
>>> reported_measurement("CC1(O)CN(CCCCCCOc2ccc(C(=C3C4CC5CC(C4)CC3C5)c3ccc(OCCCCCCN4CC(C)(O)C4)cc3)cc2)C1 [NB-143]")
1100
>>> reported_measurement("C[N+]1(CCCCCCCCOc2ccc(C(=C3C4CC5CC(C4)CC3C5)c3ccc(OCCCCCCCC[N+]4(C)CCCCCC4)cc3)cc2)CCCCCC1.[I-].[I-] [NB-81]")
600
>>> reported_measurement("C[N+]1(CCCCCCOc2ccc(C(=C3C4CC5CC(C4)CC3C5)c3ccc(OCCCCCC[N+]4(C)CCC(O)CC4)cc3)cc2)CCC(O)CC1 (stereo not shown) [NB-136]")
1000
>>> reported_measurement("CN1CC[N+](C)(CCCCCCOc2ccc(C(=C3C4CC5CC(C4)CC3C5)c3ccc(OCCCCCC[N+]4(C)CCN(C)CC4)cc3)cc2)CC1 [NB-69]")
6000
>>> reported_measurement("OC1CCN(CCCCCCOc2ccc(C(=C3C4CC5CC(C4)CC3C5)c3ccc(OCCCCCCN4CCC(O)CC4)cc3)cc2)CC1 [NB-132]")
1600
>>> reported_measurement("C[N+]1(CCCCCCOc2ccc(C(=C3C4CC5CC(C4)CC3C5)c3ccc(OCCCCCC[N+]4(C)CCC4)cc3)cc2)CCC1 [NB-137]")
2300
>>> reported_measurement("C[N+]1(CCCCOc2ccc(C(=C3C4CC5CC(C4)CC3C5)c3ccc(OCCCC[N+]4(C)CCCCCC4)cc3)cc2)CCCCCC1 [NB-87]")
1700

====

The following compounds are listed with their measured pIC50 values.
System: MCF7 cells
Test: Cell proliferation assay (WST-1), MCF7
Format: cell-based, human
Details: Homo sapiens, MCF7, inhibition of cell proliferation; read-out: IC50 MCF7
Protocol: All cells were tested for mycoplasma using Real-Time PCR Mycoplasma Detection Kit (Akron Biotech, Boca Raton, FL). All assays were performed in triplicate.
pIC50: −log10 of the molar value.
readout: pIC50

>>> reported_measurement("OCC[N+]1(CCCCCCOc2ccc(C(=C3C4CC5CC(C4)CC3C5)c3ccc(OCCCCCC[N+]4(CCO)CCCCC4)cc3)cc2)CCCCC1 [NB-141]")
5.44
>>> reported_measurement("CCN(CCO)CCCCCCOc1ccc(C(=C2C3CC4CC(C3)CC2C4)c2ccc(OCCCCCCN(CC)CCO)cc2)cc1 [NB-130]")
5.92
>>> reported_measurement("OCC[N+]1(CCCCCCOc2ccc(C(=C3C4CC5CC(C4)CC3C5)c3ccc(OCCCCCC[N+]4(CCO)CCCC4)cc3)cc2)CCCC1 [NB-140]")
5.80

====

Assay: Pharmacokinetic studies in mice after single s.c. or oral dose
Details: female, CD-1, mouse, plasma, po, 60 mg/kg
readout: half-life (h)

>>> reported_measurement("c1cc(C(c2ccc(OCCCCCCN3CCCCC3)cc2)=C2[C@H]3C[C@@H]4C[C@@H](C[C@H]2C4)C3)ccc1OCCCCCCN1CCCCC1")
90.9
>>> reported_measurement("C[N+]1(CCCCCCOc2ccc(C(=C3C4CC5CC(C4)CC3C5)c3ccc(OCCCCCC[N+]4(C)CCCC4)cc3)cc2)CCCC1")
18.5

====

Test: Pharmacokinetic studies in mice after single s.c. or oral dose
Details: female, CD-1, mouse, plasma, po, 60 mg/kg, PK p.o. AUC0-48, mice, 60 mg/kg p.o.
readout: AUC(0-t)

>>> reported_measurement("C[N+]1(CCCCCCOc2ccc(C(=C3C4CC5CC(C4)CC3C5)c3ccc(OCCCCCC[N+]4(C)CCCC4)cc3)cc2)CCCC1")
"0.18 µM·h"
>>> reported_measurement("c1cc(C(c2ccc(OCCCCCCN3CCCCC3)cc2)=C2[C@H]3C[C@@H]4C[C@@H](C[C@H]2C4)C3)ccc1OCCCCCCN1CCCCC1")
"6 µM·h"

====

The following compounds are listed with their measured IC50 values.
Test system: MCF7 cells
Assay: Cell proliferation assay (WST-1), MCF7
Format: cell-based, human
Details: inhibition of cell proliferation; read-out: IC50 MCF7
readout: IC50 (µM)

>>> reported_measurement("Nc1c(C(=O)Nc2ccc(F)cc2)sc2nc(-c3cccs3)cc(C(F)(F)F)c12 [FDI-6, reference compound]")
3.1
>>> reported_measurement("C[N+]1(CCCCCOc2ccc(C(=C3C4CC5CC(C4)CC3C5)c3ccc(OCCCCC[N+]4(C)CCCCCC4)cc3)cc2)CCCCCC1")
0.7
>>> reported_measurement("Clc1ccc(C(=C2C3CC4CC(C3)CC2C4)c2ccc(OCCCCCCN3CCCC3)cc2)cc1")
3
>>> reported_measurement("CCN(CC)CCCCCCOc1ccc(C(=C2C3CC4CC(C3)CC2C4)c2ccc(O)cc2)cc1")
1.5

====

Experiment: Pharmacokinetic studies in mice after single s.c. or oral dose
Details: mice, 40 mg/kg p.o.
readout: PK p.o. AUC0-48 (µM·h)

>>> reported_measurement("Clc1ccc(C(=C2C3CC4CC(C3)CC2C4)c2ccc(OCCCCCCN3CCCC3)cc2)cc1")
35.7
>>> reported_measurement("OC[C@@H]1CCCN1CCCCCCOc1ccc(C(=C2C3CC4CC(C3)CC2C4)c2ccc(OCCCCCCN3CCC[C@H]3CO)cc2)cc1")
1.84

====

The following compounds are listed with their measured AUC(0-t) values.
Experiment: Pharmacokinetic studies in mice after single s.c. or oral dose
Conditions: female, CD-1, mouse, plasma, sc, 60 mg/kg, PK s.c. AUC0-48, mice, 60 mg/kg s.c.
readout: AUC(0-t) (µM·h)

>>> reported_measurement("C[N+]1(CCCCCCOc2ccc(C(c3ccc(OCCCCCC[N+]4(C)CCCCCC4)cc3)=C3C4C[C@H]5C[C@@H](C4)C[C@H]3C5)cc2)CCCCCC1 [NB-73]")
190
>>> reported_measurement("C[N+]1(CCCCCCOc2ccc(C(=C3C4CC5CC(C4)CC3C5)c3ccc(OCCCCCC[N+]4(C)CCCC4)cc3)cc2)CCCC1 [NB-68]")
289
>>> reported_measurement("C[N+]1(CCCCCCOc2ccc(C(c3ccc(OCCCCCC[N+]4(C)CCCCC4)cc3)=C3C4C[C@H]5C[C@@H](C4)C[C@H]3C5)cc2)CCCCC1 [NB-71]")
364
>>> reported_measurement("c1cc(C(c2ccc(OCCCCCCN3CCCCC3)cc2)=C2[C@H]3C[C@@H]4C[C@@H](C[C@H]2C4)C3)ccc1OCCCCCCN1CCCCC1 [NB-70]")
10.2

====

Experiment: Pharmacokinetic studies in mice after single s.c. or oral dose
Settings: female, CD-1, mouse, plasma, po, 40 mg/kg, PK p.o. AUC0-48, mice, 40 mg/kg p.o.
readout: AUC(0-t) (µM·h)

>>> reported_measurement("CCN(CC)CCCCCCOc1ccc(C(=C2C3CC4CC(C3)CC2C4)c2ccc(O)cc2)cc1 [NB-41]")
5.6
